Sourced from PubChem BioAssay (NCI)

For each entry below, report its TGI value.
System: SF-539 CNS
METHOD SUMMARY: NCI tumour cell line growth inhibition, 48 h
Answers are plain numbers, in µM.

[
  {
    "COMPOUND": "Cc1cc(Cc2cc(C)c(O)c(C)c2)cc(C)c1O",
    "READOUT VALUE": 14.2
  }
]

Could you report TGI for every entry in the following list?
1. CC1(C)C(c2ccccc2)C12CCC1(C2=O)C(c2ccccc2)C1(C)C (stereo unspecified)
2. CN1CCC(CNC(=O)CCCCCCCCC(=O)NCC2(c3ccccc3)CCN(C)CC2)(c2ccccc2)CC1
3. Cc1ccc(C2CC(c3ccc([N+](=O)[O-])cc3)=Nc3ccccc3S2)cc1 (stereo unspecified)
4. CCCCCCCC(=O)OC[C@@H](C[As](=O)(O)O)OC(=O)CCCCCCC
5. N#CC(C#N)=Cc1c(-c2ccccc2)[nH]c2ccccc12
6. CCN(CC)C(=O)CC1=C(C)/C(=C/c2[nH]c(-c3ccc[nH]3)cc2OC)N=C1C
7. Oc1c(C(Nc2cccc3ccccc23)c2ccccc2)ccc2cccnc12 (stereo unspecified)
8. Oc1[nH]c2ccccc2c1N=NC(=S)N1CCCCC1

Output:
75.2
48.8
71.9
22.3
9.12
12.2
21.4
1.49

Could you report TGI for every entry in the following list?
1. COc1cc(-c2nn(-c3ccc(NC(=O)Nc4ccc(Cl)c(Cl)c4)cc3)cc2-c2ccncc2)ccc1Cl
2. C=C1CC(Cn2ccc(=O)[nH]c2=O)(c2ccc(-c3ccccc3)cc2)OC1=O (stereo unspecified)

Output:
1. 33.6
2. 8.89

Field TGI (entry `COc1cc(N2CCN(C(C)C)CC2)ccc1Nc1nc(Nc2cccc3ncccc23)c2cc[nH]c2n1` ) reads 8.15
